Source listed as patent US20230357429A1.

- targetUnderTest: T1, TBD-1 wt
- T1 construct: Fab; the heavy chain entry is VH-CH1; also called wild-type anti-TROP2 Fab (hRS7); TROP2 Fab
- testName: competition ELISA, peptide vs Fab binding to captured biotin-TROP2
Where no end group is shown, it is not given here.
observationType: IC50 (nM)
// return numeric value only (unit: nM, not printed)

Inquiry: Param item = IDFCAVYKWPVCQV (cysteine pairing not given here; also: biotinylated, site not given here) [Peptide-62] ; retrieve measured IC50.
Reply text: 1470

Inquiry: Param item = VDFCSIYHWPVCYV (cysteine pairing not given here; also: biotinylated, site not given here) [Peptide-38] ; retrieve measured IC50.
Reply text: 1630

Inquiry: Param item = VDFCALYHWPICYQ (cysteine pairing not given here; also: biotinylated, site not given here) [Peptide-43] ; retrieve measured IC50.
Reply text: 300

Inquiry: Param item = VDFCGLYHWPICYQVY (cysteine pairing not given here; also: biotinylated, site not given here) [Peptide-41] ; retrieve measured IC50.
Reply text: 640

Inquiry: Param item = IDFCAMYHWPICDT (cysteine pairing not given here; also: biotinylated, site not given here) [Peptide-42] ; retrieve measured IC50.
Reply text: 300
